# Experimental Details: Selectivity index, ratio of IC50 for human DPP4 to IC50 for Porphyromonas gingivalis N-terminal His-tagged DPP4 expressed in Escherichia coli
Readout Kind: Ratio IC50

Notebook: NC(CC(=O)N1CCN(C(c2ccc(F)cc2)c2ccc(F)cc2)CC1)C(=O)N1Cc2ccc(F)cc2C1 (configuration not stated) , Ratio IC50 read as 2.7

[I] CNCCCCC(N)C(=O)N1CCCC1 (configuration not stated)
[II] CC1CC(N=[N+]=[N-])CN1C(=O)C(N)CCC(=O)N1CCN(C(c2ccc(F)cc2)c2ccc(F)cc2)CC1 (configuration not stated)
Exercise: Of I and II , whose reported Ratio IC50 is the larger number? Let me know the label of the one you choose.
Key: I
(I: 0.52, II: 0.25)

[a] CC1CC(N=[N+]=[N-])CN1C(=O)C(N)CCC(=O)N1CCN(Cc2ccc(F)cc2)CC1 (configuration not stated)
[b] NC(CCCCNC(=O)OCc1ccccc1)C(=O)N1CCSC1 (configuration not stated)
[c] NC(CCCCN(Cc1ccc2ccccc2c1)Cc1ccc2ccccc2c1)C(=O)N1CCCC1 (configuration not stated)
Exercise: # rank by Ratio IC50, ascending (min first) Give the labels in the order requested.
Key: b, a, c

====

# Experimental Details: Selectivity index, ratio of IC50 for human DPP4 to IC50 for Porphyromonas gingivalis N-terminal His-tagged DPP4 expressed in Escherichia coli
Readout Kind: Ratio IC50

[A] N#C[C@@H]1CCCN1C(=O)[C@@H](N)CCCCNC(=O)OCc1ccccc1
[B] CCC(C)C(N)C(=O)N1CCCC1 (stereo unspecified)
Exercise: Of A and B , whose reported Ratio IC50 is the larger number? Let me know the label of the one you choose.
Key: B
(B: 0.18, A: 0.02)

[I] NC(CCCCNCc1ccccc1)C(=O)N1CCCC1 (stereo unspecified)
[II] NCCCCC(N)C(=O)N1CCSC1 (stereo unspecified)
Exercise: Of I and II , whose reported Ratio IC50 is the larger number? Let me know the label of the one you choose.
Key: I

====

# Assay Target: UniProt:E1BI31
# Sequence (E1BI31 whole entry): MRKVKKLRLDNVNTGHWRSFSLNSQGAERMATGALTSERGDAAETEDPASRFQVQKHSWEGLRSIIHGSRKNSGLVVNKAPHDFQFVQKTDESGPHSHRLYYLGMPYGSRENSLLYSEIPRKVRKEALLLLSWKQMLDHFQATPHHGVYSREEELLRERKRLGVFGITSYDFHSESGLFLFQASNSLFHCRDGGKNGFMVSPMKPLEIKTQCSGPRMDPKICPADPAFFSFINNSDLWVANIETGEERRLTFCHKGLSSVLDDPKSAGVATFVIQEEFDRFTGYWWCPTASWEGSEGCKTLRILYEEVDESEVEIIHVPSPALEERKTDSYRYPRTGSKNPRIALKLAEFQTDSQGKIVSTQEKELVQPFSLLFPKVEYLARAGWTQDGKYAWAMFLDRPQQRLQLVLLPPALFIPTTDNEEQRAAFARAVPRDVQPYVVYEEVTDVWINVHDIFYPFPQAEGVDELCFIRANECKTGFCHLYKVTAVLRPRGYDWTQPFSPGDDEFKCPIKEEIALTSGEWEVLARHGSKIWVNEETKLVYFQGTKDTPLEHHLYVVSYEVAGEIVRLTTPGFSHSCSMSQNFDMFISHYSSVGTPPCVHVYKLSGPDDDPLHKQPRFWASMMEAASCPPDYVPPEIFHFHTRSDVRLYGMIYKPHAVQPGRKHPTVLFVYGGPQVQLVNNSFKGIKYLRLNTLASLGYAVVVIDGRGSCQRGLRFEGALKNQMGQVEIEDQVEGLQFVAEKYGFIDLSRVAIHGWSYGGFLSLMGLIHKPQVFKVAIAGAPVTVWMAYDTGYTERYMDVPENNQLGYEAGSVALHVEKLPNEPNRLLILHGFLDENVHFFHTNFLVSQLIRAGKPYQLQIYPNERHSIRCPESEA
pIC50: −log10 of the molar value.
Readout Kind: pIC50

Result for CC#CCn1c(N2CCC[C@@H](N)C2)nc2c1c(=O)n(Cc1nc(C)c3ccccc3n1)c(=O)n2C [LINAGLIPTIN] , tested on UniProt:E1BI31, pIC50: < 4.00

====

# Assay Target: UniProt:O31048
# Sequence (O31048 20-723 limits assumed): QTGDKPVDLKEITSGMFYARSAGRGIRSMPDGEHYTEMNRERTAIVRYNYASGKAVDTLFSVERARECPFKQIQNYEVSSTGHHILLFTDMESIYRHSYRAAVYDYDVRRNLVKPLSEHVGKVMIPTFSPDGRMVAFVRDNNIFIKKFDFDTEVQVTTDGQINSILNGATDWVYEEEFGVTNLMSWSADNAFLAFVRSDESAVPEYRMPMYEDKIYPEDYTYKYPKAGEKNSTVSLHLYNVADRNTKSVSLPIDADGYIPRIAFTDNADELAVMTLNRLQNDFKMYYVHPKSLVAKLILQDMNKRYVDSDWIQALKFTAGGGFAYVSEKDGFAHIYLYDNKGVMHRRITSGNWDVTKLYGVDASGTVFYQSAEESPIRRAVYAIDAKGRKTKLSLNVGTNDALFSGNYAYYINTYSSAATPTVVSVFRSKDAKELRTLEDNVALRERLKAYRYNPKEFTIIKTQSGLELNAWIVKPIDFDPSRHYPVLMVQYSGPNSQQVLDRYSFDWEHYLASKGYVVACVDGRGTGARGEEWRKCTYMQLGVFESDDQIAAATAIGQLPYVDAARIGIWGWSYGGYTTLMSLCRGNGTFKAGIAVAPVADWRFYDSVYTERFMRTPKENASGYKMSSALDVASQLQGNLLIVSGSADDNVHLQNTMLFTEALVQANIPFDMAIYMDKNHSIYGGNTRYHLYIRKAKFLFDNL
# Experimental Details: Inhibition of Porphyromonas gingivalis N-terminal His-tagged DPP4 expressed in Escherichia coli using Gly-Pro-p-nitroanilide as substrate
# Condition Details: read-out: IC50
pIC50: −log10 of the molar value.
Readout Kind: pIC50

These solved cases illustrate the format of a correct answer.
Result for N[C@@H](CC(=O)N1CCn2c(nnc2C(F)(F)F)C1)Cc1cc(F)c(F)cc1F , tested on UniProt:O31048, pIC50: 4.74

Result for CC[C@H](C)[C@H](N)C(=O)N1C[C@@H](N=[N+]=[N-])C[C@H]1C#N , tested on UniProt:O31048, pIC50: 6.51

Result for N#C[C@@H]1C[C@H](N=[N+]=[N-])CN1C(=O)[C@@H](N)CCC(=O)N1CCNCC1 , tested on UniProt:O31048, pIC50: 6.32

[1] CC1CC(N=[N+]=[N-])CN1C(=O)C(N)CCC(=O)N1CCN(C(c2ccc(F)cc2)c2ccc(F)cc2)CC1 (stereo unspecified)
[2] N#CC1CC(N=[N+]=[N-])CN1C(=O)C(N)CCCCN(Cc1ccc2ccccc2c1)Cc1ccc2ccccc2c1 (stereo unspecified)
[3] NC(CCCCNCc1ccccc1)C(=O)N1CCCC1 (stereo unspecified)
[4] CC[C@@H](C)[C@H](N)C(=O)N1C[C@@H](N=[N+]=[N-])C[C@H]1C#N
Exercise: Rank the 4 molecules: largest pIC50 first, smallest last. Give the labels in the order requested.
Key: 4, 2, 3, 1
